target: His-tagged GFP-dmDcr1 (Drosophila, UniProt Q9VCU9 1-2249); assay: fluorescence cross-correlation spectroscopy
Sequence (Q9VCU9 whole entry): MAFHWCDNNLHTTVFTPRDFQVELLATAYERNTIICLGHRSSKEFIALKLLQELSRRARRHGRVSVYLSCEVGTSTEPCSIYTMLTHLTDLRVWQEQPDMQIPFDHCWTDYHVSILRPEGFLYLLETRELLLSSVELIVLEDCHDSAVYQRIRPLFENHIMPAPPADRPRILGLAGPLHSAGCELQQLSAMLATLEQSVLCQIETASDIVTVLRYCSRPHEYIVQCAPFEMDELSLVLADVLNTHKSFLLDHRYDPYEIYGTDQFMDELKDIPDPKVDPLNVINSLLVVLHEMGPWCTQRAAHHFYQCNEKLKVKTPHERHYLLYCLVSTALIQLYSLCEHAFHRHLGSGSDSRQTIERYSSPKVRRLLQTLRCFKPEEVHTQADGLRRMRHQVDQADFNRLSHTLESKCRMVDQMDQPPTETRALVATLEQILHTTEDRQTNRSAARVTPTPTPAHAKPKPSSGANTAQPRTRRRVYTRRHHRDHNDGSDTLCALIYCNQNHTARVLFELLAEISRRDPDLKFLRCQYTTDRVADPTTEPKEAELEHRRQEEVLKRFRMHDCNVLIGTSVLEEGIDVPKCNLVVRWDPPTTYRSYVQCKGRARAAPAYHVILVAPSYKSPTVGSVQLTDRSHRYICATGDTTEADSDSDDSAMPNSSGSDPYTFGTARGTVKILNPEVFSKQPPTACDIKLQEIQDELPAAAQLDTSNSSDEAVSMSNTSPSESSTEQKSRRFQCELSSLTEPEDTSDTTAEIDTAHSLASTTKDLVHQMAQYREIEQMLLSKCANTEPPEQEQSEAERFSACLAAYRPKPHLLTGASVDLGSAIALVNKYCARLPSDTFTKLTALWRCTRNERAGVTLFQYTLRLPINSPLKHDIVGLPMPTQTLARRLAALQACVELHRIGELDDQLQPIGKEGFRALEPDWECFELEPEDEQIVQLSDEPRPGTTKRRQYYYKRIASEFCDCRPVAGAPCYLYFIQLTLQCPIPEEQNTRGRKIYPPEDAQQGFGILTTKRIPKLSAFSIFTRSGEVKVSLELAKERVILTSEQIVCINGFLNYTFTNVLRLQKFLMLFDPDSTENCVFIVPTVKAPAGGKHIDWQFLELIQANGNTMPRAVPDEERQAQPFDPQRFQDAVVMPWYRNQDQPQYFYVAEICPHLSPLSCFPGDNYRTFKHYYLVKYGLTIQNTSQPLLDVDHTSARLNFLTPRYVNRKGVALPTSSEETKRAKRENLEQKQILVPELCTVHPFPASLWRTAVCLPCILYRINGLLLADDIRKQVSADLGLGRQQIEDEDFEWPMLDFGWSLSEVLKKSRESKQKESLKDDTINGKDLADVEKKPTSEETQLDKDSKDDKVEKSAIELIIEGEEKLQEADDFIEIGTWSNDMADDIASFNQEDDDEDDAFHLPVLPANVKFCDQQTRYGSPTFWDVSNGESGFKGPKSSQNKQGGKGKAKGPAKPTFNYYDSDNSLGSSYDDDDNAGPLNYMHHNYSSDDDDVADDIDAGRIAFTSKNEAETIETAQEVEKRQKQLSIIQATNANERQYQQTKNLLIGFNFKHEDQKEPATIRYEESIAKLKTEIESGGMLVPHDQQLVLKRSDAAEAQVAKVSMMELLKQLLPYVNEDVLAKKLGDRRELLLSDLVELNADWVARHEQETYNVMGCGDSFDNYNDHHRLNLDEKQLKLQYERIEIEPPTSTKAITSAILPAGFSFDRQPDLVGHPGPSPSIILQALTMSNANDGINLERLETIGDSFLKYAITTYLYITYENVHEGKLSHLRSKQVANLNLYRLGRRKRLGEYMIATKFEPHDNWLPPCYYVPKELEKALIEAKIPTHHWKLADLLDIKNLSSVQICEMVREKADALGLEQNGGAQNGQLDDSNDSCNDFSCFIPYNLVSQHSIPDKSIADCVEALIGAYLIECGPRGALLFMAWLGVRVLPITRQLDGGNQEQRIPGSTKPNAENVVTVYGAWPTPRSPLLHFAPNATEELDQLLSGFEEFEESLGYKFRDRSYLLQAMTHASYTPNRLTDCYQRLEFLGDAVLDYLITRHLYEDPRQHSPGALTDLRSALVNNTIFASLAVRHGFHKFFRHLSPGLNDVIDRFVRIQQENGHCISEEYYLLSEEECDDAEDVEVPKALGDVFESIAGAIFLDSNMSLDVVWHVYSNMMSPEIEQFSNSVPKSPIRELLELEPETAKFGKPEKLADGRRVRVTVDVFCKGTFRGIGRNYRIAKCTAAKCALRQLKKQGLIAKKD
Provide the reported pKi of each item.
Answers are plain numbers, as −log10 of the molar value.

BINDER: Loqs-3, unlabeled, purified (domain or fragment, Drosophila, UniProt Q9VJY9 368-463, looked up) HKTLKNATGKKLLKLQKTCLKNNKIDYIKLLGEIATENQFEVTYVDIEEKTFSGQFQCLVQLSTLPVGVCHGSGPTAADAQRHAAQNALEYLKIMT
pKi: 8.44

Here is the next item to consider.
Identify measured pKi associated with Loqs dsRBD3, unlabeled, purified (domain or fragment, Drosophila) IDYIKLLGEIATENQFEVTYVDIEEKTFSGQFQCLVQLSTLPVGVCHGSGPTAADAQRHAAQNALEYLKIMT
7.36
